Cited source for all entries: patent US10906894B2

Target: GPR119 (Homo sapiens, UniProt Q8TDV5)
Sequence (Q8TDV5 1-335): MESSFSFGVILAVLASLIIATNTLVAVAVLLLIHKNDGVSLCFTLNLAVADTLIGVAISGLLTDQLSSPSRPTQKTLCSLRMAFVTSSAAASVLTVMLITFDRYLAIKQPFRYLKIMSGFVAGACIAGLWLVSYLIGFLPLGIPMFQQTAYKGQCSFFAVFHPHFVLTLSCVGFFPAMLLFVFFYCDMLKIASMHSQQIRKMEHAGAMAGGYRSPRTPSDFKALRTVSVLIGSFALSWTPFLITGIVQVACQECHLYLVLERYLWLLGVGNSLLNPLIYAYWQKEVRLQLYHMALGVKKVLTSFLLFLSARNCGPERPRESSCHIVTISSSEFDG
Experiment: LANCE Ultra cAMP assay: stimulation of GPR119-mediated cAMP production in CHO cells stably expressing human GPR119 receptor
Format: cell-based
Settings: Table B-2 entries 1-14; protocol as described (800 000 cells/mL, 5 uL/well); CHO-GPR119 cells
observedProperty: EC50 (nM)

• [O-][S+]1COc2cc(-c3ccc(OCC4CCN(c5ncc(Cl)cn5)CC4)c(F)c3)ccc21 (stereo not shown) [Example B-16] = 2.3
• CC(C)c1cnc(N2CCC(COc3ccc(-c4ccc5c(c4)OC[S+]5[O-])cc3F)CC2)nc1 (stereo not shown) [Example B-28] = 3
• CCc1ccnc(N2CCC(COc3ccc(-c4ccc5c(c4)OC[S+]5[O-])cc3F)CC2)n1 (stereo not shown) [Example B-25] = 31.8
• CCOc1cnc(N2CCC(COc3ccc(-c4ccc5c(c4)OC[S+]5[O-])cc3F)CC2)nc1 (stereo not shown) [Example B-27] = 4.7
• COc1cnc(N2CCC(COc3ccc(-c4ccc5c(c4)OC[S+]5[O-])cc3F)CC2)nc1 (stereo not shown) [Example B-24] = 2.3

(a) CCc1cnc(N2CCC(COc3ccc(-c4ccc5c(c4)OC[S+]5[O-])cc3F)CC2)nc1 (stereo not shown) [Example B-19]
(b) CC(C)CC(=O)N1CCC(COc2ccc(-c3ccc4c(c3)OC[S+]4[O-])cc2F)CC1 (stereo not shown) [Example B-23]
Asked: Looking at a and b , which one comes out lower in EC50 terms? Pick one and reply with its label.
Given back: a
